Every entry's value here was drawn from patent US20120329826A1.

Record type: pIC50 measurement. Applies to: MET (human) (Homo sapiens, UniProt P08581)
pIC50: −log10 of the molar value. Where a name gives a salt, the structure may show the parent alone.

Molecule	pIC50
C[C@@H](Oc1c(N)ncc2c1ccn2CCC1CCNCC1)c1c(Cl)ccc(F)c1Cl [Example 5, bis-hydrochloride]	≥ 5.30

Next up:
// lookup pIC50 for Nc1ncc2c(ccn2CCC2CCNCC2)c1-c1cc2ccccc2o1 [Example 10, bis-hydrochloride] ≥ 5.30
